The entries below are paired with their reported Emax.
biological target: wild-type Androgen Receptor (AR-wt) (Homo sapiens); construct: expressed in transfected cells; host or cells: LNCaP (LNCaP AR (cs)); experiment: LNCaP-AR-wt ANT reporter assay (ARE firefly luciferase, antagonist mode); assay type: cell-based; settings: read-out: LNCaP-AR-wt ANT MAX % Inh
Quantity: Emax (%)

In [3]: df
Out[3]:
                                      smiles  uom  observed_result
 0  CNC(=O)c1ccc(N2C(=S)N(c3cnc(C#N)c(C)c3)C(=O)C2(C)C)cc1F    %             98.4
 1  N#Cc1ncc(N2C(=O)C3(CCC3)N(c3ccc4[nH]ncc4c3)C2=S)cc1C(F)(F)F    %             94.7
 2  Cc1cc(N2C(=O)C3(CCC3)N(c3ccc(-c4cncnc4)cc3)C2=S)cnc1C#N    %              100
 3  N#Cc1ncc(N2C(=O)C3(CCC3)N(c3ccc(C(=O)NCCCN4CCOCC4)c(F)c3)C2=S)cc1C(F)(F)F    %              102
 4  N#Cc1ncc(N2C(=O)C3(CCC3)N(c3ccc(C(=O)NCc4ccccn4)c(F)c3)C2=S)cc1C(F)(F)F    %              103
 5  N#Cc1ncc(N2C(=O)C3(CCC3)N(c3ccc(C(=O)NCc4cccs4)c(F)c3)C2=S)cc1C(F)(F)F    %              102
 6  N#Cc1ncc(N2C(=O)C3(CCC3)N(c3ccc(C(=O)NCCCc4ccccc4)c(F)c3)C2=S)cc1C(F)(F)F    %               99
 7  COCCNC(=O)c1ccc(N2C(=S)N(c3cnc(C#N)c(C(F)(F)F)c3)C(=O)C23CCC3)cc1F    %             99.9
 8  N#Cc1ncc(N2C(=O)C3(CCC3)N(c3ccc(OC4CCN(CCO)CC4)cc3)C2=S)cc1C(F)(F)F    %               99
 9  N#Cc1ncc(N2C(=O)C3(CCC3)N(c3ccc4ccccc4c3)C2=S)cc1C(F)(F)F    %              101
10  N#Cc1ncc(N2C(=O)C3(CCC3)N(c3ccc(C(=O)NCc4cccnc4)c(F)c3)C2=S)cc1C(F)(F)F    %             99.2
11  CC(C)(O)CNC(=O)c1ccc(N2C(=S)N(c3cnc(C#N)c(C(F)(F)F)c3)C(=O)C23CCC3)cc1F    %             95.5
12  N#Cc1ncc(N2C(=O)C3(CCC3)N(c3ccc(C(=O)NCc4ccccc4)c(F)c3)C2=S)cc1C(F)(F)F    %             96.1
13  C#CCNC(=O)c1ccc(N2C(=S)N(c3cnc(C#N)c(C(F)(F)F)c3)C(=O)C23CCC3)cc1F    %              102
14  N#Cc1ncc(N2C(=O)C3(CCC3)N(c3ccc(C(=O)NCc4ccccc4Cl)c(F)c3)C2=S)cc1C(F)(F)F    %             98.6

###

target: F876L mutant Androgen Receptor (AR-F876L) (Homo sapiens, UniProt P10275, F877L); construct: expressed in transfected cells; host or cells: LNCaP (LNCaP F876L); experiment: LNCaP-AR-F876L ANT reporter assay (ARE firefly luciferase, antagonist mode); assay type: cell-based; settings: read-out: LNCaP-AR-F876L ANT pIC50 (converted)
Quantity: IC50 (nM)

>>> df
                                   molecule  quantity  observed_result
0  Cc1ccc(N2C(=S)N(c3cnc(C#N)c(C(F)(F)F)c3)C(=O)C23CCC3)cc1F [Cpd 115]      IC50              437
1  COCCNC(=O)c1ccc(N2C(=S)N(c3cnc(C#N)c(C(F)(F)F)c3)C(=O)C23CCC3)cc1F [Cpd 46]      IC50              631
2  N#Cc1ncc(N2C(=O)C3(CCC3)N(c3ccccc3)C2=S)cc1C(F)(F)F [Cpd 70]      IC50              513
3  Cc1cc(N2C(=O)C3(CCC3)N(c3ccc(OC4CCOCC4)cc3)C2=S)cnc1C#N [Cpd 87]      IC50              288

###

molecular target: F876L mutant Androgen Receptor (AR-F876L) (Homo sapiens, UniProt P10275, F877L); construct: expressed in transfected cells; host or cells: LNCaP (LNCaP F876L); assay: LNCaP-AR-F876L ANT reporter assay (ARE firefly luciferase, antagonist mode); assay type: cell-based; conditions: read-out: LNCaP-AR-F876L ANT pIC50 (converted)
Quantity: IC50

In [3]: df
Out[3]:
                                   compound  observed_result
0  Cc1ccc(NC(=O)c2ccc(N3C(=S)N(c4cnc(C#N)c(C)c4)C(=O)C34CCC4)cc2F)cn1 [Cpd 75]         0.145 µM
1  CC(C)(O)CNC(=O)c1ccc(N2C(=S)N(c3cnc(C#N)c(C(F)(F)F)c3)C(=O)C23CCC3)cc1F [Cpd 17]           1.1 µM
2  N#Cc1ncc(N2C(=O)C3(CCC3)N(c3ccc(C(=O)NCc4cnccn4)c(F)c3)C2=S)cc1C(F)(F)F [Cpd 54]         0.219 µM
3  Cc1cc(N2C(=O)C3(CCC3)N(c3ccc(C(=O)NC4CCOCC4)c(F)c3)C2=S)cnc1C#N [Cpd 2]         0.288 µM

###

Molecular target: F876L mutant Androgen Receptor (AR-F876L) (Homo sapiens, UniProt P10275, F877L)
Construct: expressed in transfected cells; host or cells: LNCaP (LNCaP F876L)
Sequence (P10275 1-920 F877L): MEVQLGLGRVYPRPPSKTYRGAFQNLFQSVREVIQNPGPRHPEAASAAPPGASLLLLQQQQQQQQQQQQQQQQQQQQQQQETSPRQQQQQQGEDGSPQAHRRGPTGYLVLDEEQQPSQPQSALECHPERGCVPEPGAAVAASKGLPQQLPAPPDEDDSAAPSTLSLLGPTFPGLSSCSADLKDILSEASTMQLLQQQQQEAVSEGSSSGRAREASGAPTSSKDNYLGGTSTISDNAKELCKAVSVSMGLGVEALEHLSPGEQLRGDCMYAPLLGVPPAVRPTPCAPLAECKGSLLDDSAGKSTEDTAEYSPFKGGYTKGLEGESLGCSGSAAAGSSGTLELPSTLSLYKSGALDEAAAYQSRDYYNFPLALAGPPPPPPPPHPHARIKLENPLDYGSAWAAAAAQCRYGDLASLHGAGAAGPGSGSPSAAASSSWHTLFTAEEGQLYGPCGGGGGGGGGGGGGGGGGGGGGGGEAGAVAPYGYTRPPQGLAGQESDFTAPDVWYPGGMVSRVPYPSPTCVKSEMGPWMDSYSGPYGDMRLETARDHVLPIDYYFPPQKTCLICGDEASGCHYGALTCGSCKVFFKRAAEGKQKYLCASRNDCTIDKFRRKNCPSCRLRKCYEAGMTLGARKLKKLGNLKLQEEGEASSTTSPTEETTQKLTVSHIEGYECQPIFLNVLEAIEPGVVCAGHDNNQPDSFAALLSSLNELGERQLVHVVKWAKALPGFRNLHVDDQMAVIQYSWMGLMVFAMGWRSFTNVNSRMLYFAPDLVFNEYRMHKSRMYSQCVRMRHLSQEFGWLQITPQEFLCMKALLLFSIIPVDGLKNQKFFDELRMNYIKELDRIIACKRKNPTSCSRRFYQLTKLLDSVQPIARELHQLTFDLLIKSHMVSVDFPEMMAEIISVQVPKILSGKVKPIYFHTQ
Assay: LNCaP-AR-F876L ANT reporter assay (ARE firefly luciferase, antagonist mode)
Assay type: cell-based
Conditions: read-out: LNCaP-AR-F876L ANT pIC50 (converted)
Quantity: IC50

>>> df
                                   compound  observed_result
0  CNS(=O)(=O)c1ccc(N2C(=S)N(c3cnc(C#N)c(C(F)(F)F)c3)C(=O)C23CCC3)cc1 [Cpd 25]           525 nM
1  N#Cc1ncc(N2C(=O)C3(CCC3)N(c3ccc(C(=O)NCc4ccccc4Cl)c(F)c3)C2=S)cc1C(F)(F)F [Cpd 31]          2240 nM
2  COCCCNC(=O)c1ccc(N2C(=S)N(c3cnc(C#N)c(C(F)(F)F)c3)C(=O)C23CCC3)cc1F [Cpd 24]           229 nM
3  N#Cc1ncc(N2C(=O)C3(CCC3)N(c3cccc(OC(F)(F)F)c3)C2=S)cc1C(F)(F)F [Cpd 97]           676 nM
